Hey, just so you know, these numbers are from the supplement of paper PMC7877785.

- method-notes: self-splicing fitness, log relative to wild type (ln ratio); higher = more splicing; Tetrahymena group I intron in knt gene, E. coli kanamycin selection, DiMSum; sequences stand for … in CUCUCU…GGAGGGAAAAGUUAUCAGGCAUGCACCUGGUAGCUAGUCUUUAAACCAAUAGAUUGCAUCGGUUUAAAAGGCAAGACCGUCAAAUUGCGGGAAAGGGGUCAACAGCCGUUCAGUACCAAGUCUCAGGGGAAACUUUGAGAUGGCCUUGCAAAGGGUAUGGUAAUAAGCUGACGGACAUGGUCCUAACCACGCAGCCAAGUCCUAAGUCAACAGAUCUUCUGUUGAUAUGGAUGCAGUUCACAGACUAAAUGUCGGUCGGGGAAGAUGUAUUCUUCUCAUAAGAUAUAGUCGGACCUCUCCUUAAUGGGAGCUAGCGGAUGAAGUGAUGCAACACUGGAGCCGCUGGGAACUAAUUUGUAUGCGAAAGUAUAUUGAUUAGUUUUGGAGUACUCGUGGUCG;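 further: selection with 25 µg/mL kanamycin versus none on LB agar overnight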
- assay-setup: 30 °C
We use -2 as the dividing line for self-splicing fitness (ln): on or above the line is fulfilled, below is not fulfilled.

Challenge: self-splicing fitness (ln) >= -2 for UGUAAGCAAUAUUACGGUAC ?
Response given: fulfilled

Challenge: self-splicing fitness (ln) >= -2 for GAGAAGCAAUAUUACGUUGA ?
Response given: not fulfilled

Challenge: self-splicing fitness (ln) >= -2 for ACCAAGCAAUAUUACGCCGG ?
Response given: not fulfilled

Challenge: self-splicing fitness (ln) >= -2 for ACUGAGCAAUAUUACGUAGG ?
Response given: not fulfilled

Challenge: self-splicing fitness (ln) >= -2 for AUAUAGCAAUAUUACGCGGU ?
Response given: not fulfilled

Challenge: self-splicing fitness (ln) >= -2 for GGGAAGCAAUAUUACGAUGU ?
Response given: fulfilled

Challenge: self-splicing fitness (ln) >= -2 for GUGUAGCAAUAUUACGCGGC ?
Response given: not fulfilled

Challenge: self-splicing fitness (ln) >= -2 for GUUGAGCAAUAUUACGGUGC ?
Response given: not fulfilled

Challenge: self-splicing fitness (ln) >= -2 for AGUGAGCAAUAUUACGGCAG ?
Response given: not fulfilled

Challenge: self-splicing fitness (ln) >= -2 for CGUUAGCAAUAUUACGGCCG ?
Response given: fulfilled

Others:
Challenge: self-splicing fitness (ln) >= -2 for GUACAGCAAUAUUACGAAUG ?
Response given: not fulfilled

Challenge: self-splicing fitness (ln) >= -2 for GACUAGCAAUAUUACGGCGU ?
Response given: fulfilled

Challenge: self-splicing fitness (ln) >= -2 for CACAAGCAAUAUUACGGGUG ?
Response given: not fulfilled

Challenge: self-splicing fitness (ln) >= -2 for AUGAAGCAAUAUUACGCCGA ?
Response given: fulfilled

Challenge: self-splicing fitness (ln) >= -2 for AGUAAGCAAUAUUACGGCAA ?
Response given: fulfilled

====

Readings of self-splicing fitness (ln) for the listed sequences
- method-notes: self-splicing fitness, log relative to wild type (ln ratio); higher = more splicing; Tetrahymena group I intron in knt gene, E. coli kanamycin selection, DiMSum; sequences stand for … in CUCUCU…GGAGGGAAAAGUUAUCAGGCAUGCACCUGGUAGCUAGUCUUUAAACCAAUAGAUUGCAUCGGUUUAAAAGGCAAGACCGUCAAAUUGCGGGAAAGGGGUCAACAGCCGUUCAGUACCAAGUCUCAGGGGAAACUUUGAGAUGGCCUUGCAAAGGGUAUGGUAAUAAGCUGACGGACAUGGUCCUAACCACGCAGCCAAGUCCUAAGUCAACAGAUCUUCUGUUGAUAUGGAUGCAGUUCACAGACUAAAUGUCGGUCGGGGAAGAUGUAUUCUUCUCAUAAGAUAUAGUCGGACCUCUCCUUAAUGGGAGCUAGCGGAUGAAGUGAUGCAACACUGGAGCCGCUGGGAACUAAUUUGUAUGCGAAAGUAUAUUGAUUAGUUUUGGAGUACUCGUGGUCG
- assay-setup: 30 °C
// no unit string in output, number only

Consider the reported self-splicing fitness (ln) for these sequences:
Challenge: GET /values?readout=self-splicing fitness (ln)&item= ACGUAGCAAUAUUACGUGCC
Response given: -1.54

Challenge: GET /values?readout=self-splicing fitness (ln)&item= GUCUAGCAAUAUUACGCACG
Response given: -1.27

Challenge: GET /values?readout=self-splicing fitness (ln)&item= CCAUAGCAAUAUUACGGUCU
Response given: -3.96

Challenge: GET /values?readout=self-splicing fitness (ln)&item= GUAUAGCAAUAUUACGGGUC
Response given: -1.89

Challenge: GET /values?readout=self-splicing fitness (ln)&item= UCACAGCAAUAUUACGACAC
Response given: -3.44

Challenge: GET /values?readout=self-splicing fitness (ln)&item= UCCCAGCAAUAUUACGAAGU
Response given: -2.04

Challenge: GET /values?readout=self-splicing fitness (ln)&item= AUUCAGCAAUAUUACGUUAA
Response given: -1.62

Challenge: GET /values?readout=self-splicing fitness (ln)&item= CUACAGCAAUAUUACGGCUA
Response given: -3.25

Challenge: GET /values?readout=self-splicing fitness (ln)&item= GCUUAGCAAUAUUACGAUCU
Response given: -1.12

Challenge: GET /values?readout=self-splicing fitness (ln)&item= UUAAAGCAAUAUUACGGCAG
Response given: 0.129

Others:
Challenge: GET /values?readout=self-splicing fitness (ln)&item= GUAAAGCAAUAUUACGUCCA
Response given: -0.574

Challenge: GET /values?readout=self-splicing fitness (ln)&item= UAAAAGCAAUAUUACGUACU
Response given: -0.876

Challenge: GET /values?readout=self-splicing fitness (ln)&item= CUGUAGCAAUAUUACGUGAC
Response given: -0.572

Challenge: GET /values?readout=self-splicing fitness (ln)&item= UAUGAGCAAUAUUACGCGCA
Response given: -1.68

Challenge: GET /values?readout=self-splicing fitness (ln)&item= AAGGAGCAAUAUUACGAGCG
Response given: -2.53

Challenge: GET /values?readout=self-splicing fitness (ln)&item= UAAUAGCAAUAUUACGUUGU
Response given: -3.53

Challenge: GET /values?readout=self-splicing fitness (ln)&item= AACGAGCAAUAUUACGGUAA
Response given: -4.2

Challenge: GET /values?readout=self-splicing fitness (ln)&item= UAAGAGCAAUAUUACGCGUA
Response given: -1.55

====

Readings of self-splicing fitness (ln) for the listed sequences
- method-notes: self-splicing fitness, log relative to wild type (ln ratio); higher = more splicing; Tetrahymena group I intron in knt gene, E. coli kanamycin selection, DiMSum; sequences stand for … in CUCUCU…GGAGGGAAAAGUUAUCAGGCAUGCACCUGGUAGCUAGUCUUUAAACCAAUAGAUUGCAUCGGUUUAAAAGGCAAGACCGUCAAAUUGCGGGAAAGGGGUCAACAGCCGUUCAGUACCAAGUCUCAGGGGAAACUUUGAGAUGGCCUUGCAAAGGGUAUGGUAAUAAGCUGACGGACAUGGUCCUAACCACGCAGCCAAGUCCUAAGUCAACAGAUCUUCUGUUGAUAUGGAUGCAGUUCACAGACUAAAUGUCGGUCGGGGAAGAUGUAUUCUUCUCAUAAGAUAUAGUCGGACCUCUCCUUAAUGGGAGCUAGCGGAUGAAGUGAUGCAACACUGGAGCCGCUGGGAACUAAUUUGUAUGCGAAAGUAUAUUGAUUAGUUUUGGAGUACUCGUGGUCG
- assay-setup: 30 °C
// no unit string in output, number only

Consider the reported self-splicing fitness (ln) for these sequences:
Challenge: GET /values?readout=self-splicing fitness (ln)&item= UUGCAGCAAUAUUACGCUUA
Response given: -0.263

Challenge: GET /values?readout=self-splicing fitness (ln)&item= GCUAAGCAAUAUUACGUUGA
Response given: -1.97

Challenge: GET /values?readout=self-splicing fitness (ln)&item= UGAAAGCAAUAUUACGAGCA
Response given: -0.581

Challenge: GET /values?readout=self-splicing fitness (ln)&item= GGGAAGCAAUAUUACGAUCA
Response given: -0.768

Challenge: GET /values?readout=self-splicing fitness (ln)&item= CUUUAGCAAUAUUACGCACU
Response given: -3.69

Others:
Challenge: GET /values?readout=self-splicing fitness (ln)&item= ACAGAGCAAUAUUACGUUAU
Response given: -3.59

Challenge: GET /values?readout=self-splicing fitness (ln)&item= UCCUAGCAAUAUUACGCUGA
Response given: -1.02

Challenge: GET /values?readout=self-splicing fitness (ln)&item= ACCAAGCAAUAUUACGUAAC
Response given: -3.94

Challenge: GET /values?readout=self-splicing fitness (ln)&item= CAGAAGCAAUAUUACGUCAG
Response given: -1.15

====

Readings of self-splicing fitness (ln) for the listed sequences
- method-notes: self-splicing fitness, log relative to wild type (ln ratio); higher = more splicing; Tetrahymena group I intron in knt gene, E. coli kanamycin selection, DiMSum; sequences stand for … in CUCUCU…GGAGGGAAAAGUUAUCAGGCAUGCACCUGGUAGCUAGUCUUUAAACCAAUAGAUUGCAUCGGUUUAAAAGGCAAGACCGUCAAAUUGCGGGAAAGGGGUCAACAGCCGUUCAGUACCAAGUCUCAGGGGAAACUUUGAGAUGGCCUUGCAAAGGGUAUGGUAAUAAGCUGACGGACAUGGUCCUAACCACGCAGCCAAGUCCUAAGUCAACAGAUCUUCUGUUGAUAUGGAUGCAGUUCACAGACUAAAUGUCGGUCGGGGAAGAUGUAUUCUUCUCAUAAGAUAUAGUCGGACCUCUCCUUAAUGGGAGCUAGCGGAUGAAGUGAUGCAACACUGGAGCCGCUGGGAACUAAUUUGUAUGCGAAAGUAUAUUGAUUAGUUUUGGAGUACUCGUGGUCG
- assay-setup: 37 °C
// no unit string in output, number only

Consider the reported self-splicing fitness (ln) for these sequences:
Challenge: GET /values?readout=self-splicing fitness (ln)&item= UCCCAGCAAUAUUACGGUGU
Response given: 0.504

Challenge: GET /values?readout=self-splicing fitness (ln)&item= UUGGAGCAAUAUUACGGUAG
Response given: -1.99

Challenge: GET /values?readout=self-splicing fitness (ln)&item= GUCCAGCAAUAUUACGAAGC
Response given: -0.167

Challenge: GET /values?readout=self-splicing fitness (ln)&item= UCCCAGCAAUAUUACGUAAU
Response given: -0.749

Challenge: GET /values?readout=self-splicing fitness (ln)&item= ACGGAGCAAUAUUACGUCAU
Response given: -3.01

Others:
Challenge: GET /values?readout=self-splicing fitness (ln)&item= UUGAAGCAAUAUUACGGGUC
Response given: -1.71

Challenge: GET /values?readout=self-splicing fitness (ln)&item= CAACAGCAAUAUUACGCUUA
Response given: -0.653

Challenge: GET /values?readout=self-splicing fitness (ln)&item= AGCAAGCAAUAUUACGAGGU
Response given: -1.96

Challenge: GET /values?readout=self-splicing fitness (ln)&item= GUUAAGCAAUAUUACGAUUC
Response given: -0.608

Challenge: GET /values?readout=self-splicing fitness (ln)&item= ACGAAGCAAUAUUACGGGCU
Response given: -1.67

Challenge: GET /values?readout=self-splicing fitness (ln)&item= CGAUAGCAAUAUUACGCCUU
Response given: -2.24

Challenge: GET /values?readout=self-splicing fitness (ln)&item= UGUUAGCAAUAUUACGCGCU
Response given: -0.409
